- targetEntity: Sodium channel alpha subunits; brain (Types I, II, III) (Homo sapiens, UniProt P35498+Q99250+Q9NY46)
- Sequence (Q99250 whole entry, looked up, other chains not shown): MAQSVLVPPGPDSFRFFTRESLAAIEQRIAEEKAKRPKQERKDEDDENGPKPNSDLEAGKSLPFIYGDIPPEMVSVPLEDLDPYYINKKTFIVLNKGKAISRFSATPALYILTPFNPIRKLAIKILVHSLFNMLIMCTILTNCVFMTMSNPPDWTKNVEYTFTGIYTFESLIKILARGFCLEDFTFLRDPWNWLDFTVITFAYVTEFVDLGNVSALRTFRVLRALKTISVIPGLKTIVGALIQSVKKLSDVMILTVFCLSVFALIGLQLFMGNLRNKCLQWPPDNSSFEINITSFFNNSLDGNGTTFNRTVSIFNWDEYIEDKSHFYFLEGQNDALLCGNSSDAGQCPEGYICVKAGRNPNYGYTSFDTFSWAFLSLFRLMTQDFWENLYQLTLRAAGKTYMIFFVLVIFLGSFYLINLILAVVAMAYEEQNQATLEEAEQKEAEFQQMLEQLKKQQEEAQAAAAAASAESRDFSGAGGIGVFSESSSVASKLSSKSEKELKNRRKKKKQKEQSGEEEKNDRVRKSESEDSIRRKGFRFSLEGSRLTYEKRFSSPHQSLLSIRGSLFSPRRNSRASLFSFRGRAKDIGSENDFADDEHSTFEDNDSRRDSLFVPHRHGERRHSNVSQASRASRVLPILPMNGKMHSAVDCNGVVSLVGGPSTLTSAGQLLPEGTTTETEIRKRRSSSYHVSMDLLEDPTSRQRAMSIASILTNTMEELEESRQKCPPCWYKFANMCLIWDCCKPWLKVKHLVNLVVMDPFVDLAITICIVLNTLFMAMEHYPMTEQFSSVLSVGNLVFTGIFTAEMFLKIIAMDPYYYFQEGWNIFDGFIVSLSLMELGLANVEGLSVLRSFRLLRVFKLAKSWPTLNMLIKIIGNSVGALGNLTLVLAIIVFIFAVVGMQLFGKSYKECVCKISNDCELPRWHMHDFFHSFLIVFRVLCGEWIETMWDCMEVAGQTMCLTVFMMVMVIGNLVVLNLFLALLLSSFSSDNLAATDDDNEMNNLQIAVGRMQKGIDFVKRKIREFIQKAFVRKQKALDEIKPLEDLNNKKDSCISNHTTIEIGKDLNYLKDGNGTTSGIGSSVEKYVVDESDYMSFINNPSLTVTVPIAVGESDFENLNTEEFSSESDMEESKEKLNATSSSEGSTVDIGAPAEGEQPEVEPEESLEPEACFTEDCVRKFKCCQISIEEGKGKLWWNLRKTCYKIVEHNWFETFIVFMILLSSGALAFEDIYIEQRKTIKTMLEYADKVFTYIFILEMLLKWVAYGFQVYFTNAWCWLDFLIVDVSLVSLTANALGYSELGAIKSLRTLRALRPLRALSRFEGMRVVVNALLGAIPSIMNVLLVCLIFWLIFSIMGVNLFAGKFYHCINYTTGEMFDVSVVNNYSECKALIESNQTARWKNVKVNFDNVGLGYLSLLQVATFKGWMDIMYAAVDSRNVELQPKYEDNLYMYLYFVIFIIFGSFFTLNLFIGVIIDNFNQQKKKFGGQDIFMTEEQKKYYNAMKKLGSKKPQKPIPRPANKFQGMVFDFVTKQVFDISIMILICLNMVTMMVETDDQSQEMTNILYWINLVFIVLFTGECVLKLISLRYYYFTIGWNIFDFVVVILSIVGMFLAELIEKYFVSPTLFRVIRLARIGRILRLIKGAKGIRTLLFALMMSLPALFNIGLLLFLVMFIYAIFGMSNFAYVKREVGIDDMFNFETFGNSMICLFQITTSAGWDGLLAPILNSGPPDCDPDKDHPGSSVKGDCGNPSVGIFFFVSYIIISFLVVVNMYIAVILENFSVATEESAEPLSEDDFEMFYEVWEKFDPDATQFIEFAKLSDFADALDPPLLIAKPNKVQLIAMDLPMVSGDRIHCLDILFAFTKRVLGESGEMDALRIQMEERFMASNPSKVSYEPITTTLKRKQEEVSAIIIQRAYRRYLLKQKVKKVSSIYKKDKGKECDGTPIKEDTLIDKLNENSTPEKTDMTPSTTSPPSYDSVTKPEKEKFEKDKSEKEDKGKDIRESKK
- Sequence (Q9NY46 whole entry, looked up, other chains not shown): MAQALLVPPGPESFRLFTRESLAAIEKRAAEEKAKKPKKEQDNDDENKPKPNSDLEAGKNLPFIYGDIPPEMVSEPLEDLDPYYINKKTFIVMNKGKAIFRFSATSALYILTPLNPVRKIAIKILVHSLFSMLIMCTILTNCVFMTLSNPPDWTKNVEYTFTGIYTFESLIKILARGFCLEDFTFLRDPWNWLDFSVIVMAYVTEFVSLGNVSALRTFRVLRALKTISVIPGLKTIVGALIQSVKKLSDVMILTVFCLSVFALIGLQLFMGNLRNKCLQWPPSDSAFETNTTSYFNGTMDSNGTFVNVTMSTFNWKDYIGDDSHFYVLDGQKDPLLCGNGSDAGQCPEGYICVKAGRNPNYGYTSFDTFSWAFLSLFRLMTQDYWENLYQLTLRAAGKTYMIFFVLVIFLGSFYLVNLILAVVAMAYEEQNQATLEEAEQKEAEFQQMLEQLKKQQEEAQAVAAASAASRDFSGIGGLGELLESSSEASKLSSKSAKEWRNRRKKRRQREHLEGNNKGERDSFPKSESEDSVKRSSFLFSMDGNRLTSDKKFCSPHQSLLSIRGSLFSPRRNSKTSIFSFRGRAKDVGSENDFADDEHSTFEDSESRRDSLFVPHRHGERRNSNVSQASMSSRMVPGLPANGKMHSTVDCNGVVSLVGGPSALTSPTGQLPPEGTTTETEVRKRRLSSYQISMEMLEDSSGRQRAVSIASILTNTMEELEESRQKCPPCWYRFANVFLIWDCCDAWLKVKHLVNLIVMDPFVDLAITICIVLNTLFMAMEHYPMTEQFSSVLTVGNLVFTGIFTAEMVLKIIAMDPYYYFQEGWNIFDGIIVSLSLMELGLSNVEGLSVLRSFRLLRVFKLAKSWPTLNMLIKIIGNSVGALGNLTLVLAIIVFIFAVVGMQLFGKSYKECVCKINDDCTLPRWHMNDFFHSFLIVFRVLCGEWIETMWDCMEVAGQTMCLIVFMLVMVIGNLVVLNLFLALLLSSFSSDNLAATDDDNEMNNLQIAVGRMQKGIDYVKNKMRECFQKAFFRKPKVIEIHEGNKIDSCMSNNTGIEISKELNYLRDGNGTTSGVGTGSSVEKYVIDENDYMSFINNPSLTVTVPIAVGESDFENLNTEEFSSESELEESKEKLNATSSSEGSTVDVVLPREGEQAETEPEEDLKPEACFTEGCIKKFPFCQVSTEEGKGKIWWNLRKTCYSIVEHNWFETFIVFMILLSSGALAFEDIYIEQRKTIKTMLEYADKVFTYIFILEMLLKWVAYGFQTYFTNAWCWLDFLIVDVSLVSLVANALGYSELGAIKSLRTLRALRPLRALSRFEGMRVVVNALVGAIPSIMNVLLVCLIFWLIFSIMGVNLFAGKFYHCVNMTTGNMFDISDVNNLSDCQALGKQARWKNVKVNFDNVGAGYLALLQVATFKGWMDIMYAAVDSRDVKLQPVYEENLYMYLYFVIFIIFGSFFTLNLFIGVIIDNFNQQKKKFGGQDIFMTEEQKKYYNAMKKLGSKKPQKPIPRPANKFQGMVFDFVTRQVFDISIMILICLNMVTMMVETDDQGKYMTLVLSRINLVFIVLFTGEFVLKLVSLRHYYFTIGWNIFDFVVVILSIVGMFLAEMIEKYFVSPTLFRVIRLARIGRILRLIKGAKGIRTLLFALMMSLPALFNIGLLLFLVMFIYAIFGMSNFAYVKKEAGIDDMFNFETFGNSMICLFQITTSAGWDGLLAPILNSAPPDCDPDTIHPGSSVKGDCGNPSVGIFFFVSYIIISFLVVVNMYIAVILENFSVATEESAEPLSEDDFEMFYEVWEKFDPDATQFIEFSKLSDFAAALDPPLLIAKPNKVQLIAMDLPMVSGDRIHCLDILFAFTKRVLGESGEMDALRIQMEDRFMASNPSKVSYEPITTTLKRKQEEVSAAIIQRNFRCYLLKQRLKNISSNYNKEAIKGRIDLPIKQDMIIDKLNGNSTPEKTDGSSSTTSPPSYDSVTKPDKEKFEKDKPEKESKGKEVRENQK
- conditionInfo: Cavia porcellus; Cerebral cortex; at 10 µM
So I've got a bunch of molecules here, and I need their inhibition values.
Answer format: numeric, % implied, no suffix.

Reported inhibition ( CCN(CC)CCOC(=O)c1ccc(N)cc1 ) = 47.3

Reported inhibition ( CN(C)C(=O)C(CCN1CCC(O)(c2ccc(Cl)c(C(F)(F)F)c2)CC1)(c1ccccc1)c1ccccc1 [FLUPERAMIDE] ) = 100

Reported inhibition ( CCN(CC)CCOC(=O)C1(C2CCCCC2)CCCCC1 ) = 75

Reported inhibition ( CN(C)CCCn1c2c(c3ccccc31)CCCCCC2 ) = 42.4

Reported inhibition ( CCCC(C(=O)OCC[N+](C)(CC)CC)(c1ccccc1)c1ccccc1.[I-] ) = 72

Reported inhibition ( CCOC(=O)C1=C(C)NC(C)=C(C(=O)OC)C1c1cccc([N+](=O)[O-])c1 (configuration not stated) ) = 23.1

Reported inhibition ( CCCCOc1cc(C(=O)NCCN(CC)CC)c2ccccc2n1 ) = 77.4

Reported inhibition ( CC(C)(C)NCC(CO)O/N=C1\c2ccccc2C2C=CC=CC12 (configuration not stated) ) = 72.5

Reported inhibition ( COc1cc2c3cc1Oc1cc(ccc1O)C[C@@H]1c4c(cc(OC)c(O)c4Oc4ccc(cc4)C[C@@H]3N(C)CC2)CC[N+]1(C)C ) = 3

Reported inhibition ( COc1ccc2c3c1O[C@H]1[C@@H](O)C=C[C@H]4[C@@H](C2)N(C)CC[C@@]341 ) = 5.7

Reported inhibition ( O=C(Nc1ccccc1)OCC(CN1CCCCC1)OC(=O)Nc1ccccc1 (configuration not stated) ) = 87.8

Reported inhibition ( COc1cc2c(cc1OC)C1CC(=O)C(CC(C)C)CN1CC2 (configuration not stated) ) = 7

Reported inhibition ( COc1cc2nc(N3CCN(C(=O)c4ccco4)CC3)nc(N)c2cc1OC ) = 58.6

Reported inhibition ( CC1CCCCN1CCCOC(=O)c1ccc(OC2CCCCC2)cc1 (configuration not stated) ) = 81.9

Reported inhibition ( CC(C)NC[C@@H](O)COc1cccc2ccccc12 ) = 50

Reported inhibition ( COc1cc(C(=O)OCCCN(C)CCN(C)CCCOC(=O)c2cc(OC)c(OC)c(OC)c2)cc(OC)c1OC [HEXOBENDINE] ) = 77.2

Reported inhibition ( C=C(C)[C@@H]1[C@H]2OC(=O)[C@@H]1[C@]1(O)C[C@H]3OC34C(=O)O[C@H]2[C@@]41C.CC(C)(O)[C@@H]1[C@H]2OC(=O)[C@@H]1[C@]1(O)C[C@H]3OC34C(=O)O[C@H]2[C@@]41C (some centres not stated) ) = 22.7

---

- targetEntity: Sodium channel alpha subunits; brain (Types I, II, III) (Homo sapiens, UniProt P35498+Q99250+Q9NY46)
- assayOverview: Inhibition of binding of Batrachotoxinin [3H]BTX-B to high affinity sites on voltage dependent sodium channels in a vesicular preparation from guinea pig cerebral cortex
- Format: tissue-based, Cavia porcellus
So I've got a bunch of molecules here, and I need their IC50 values.
Answer format: numeric, µM implied, no suffix.

Reported IC50 ( COc1ccc(CN(CCN(C)C)c2nccs2)cc1 ) = 19.2

Reported IC50 ( CCCOc1ccc(C(=O)OCCN(CC)CC)cc1N ) = 1.9

Reported IC50 ( Cl.NCCCCCCNS(=O)(=O)c1cccc2c(Cl)cccc12 ) = 12

Reported IC50 ( CCOC(=O)C1=C(C)NC(C)=C(C(=O)OC)C1c1cccc([N+](=O)[O-])c1 (centres undefined) ) = 36

Reported IC50 ( CN(C)CCC(c1ccc(Cl)cc1)c1ccccn1 (centres undefined) ) = 10

Reported IC50 ( COc1cc2nc(N3CCN(C(=O)c4ccco4)CC3)nc(N)c2cc1OC ) = 10.1

Reported IC50 ( CC[C@@H]1CN2CC[C@@H]1C[C@H]2[C@H](O)c1ccnc2ccc(OCCC(C)C)cc12 ) = 0.74

Reported IC50 ( COc1cc2c(cc1OC)C1CC(=O)C(CC(C)C)CN1CC2 (centres undefined) ) = 85

Reported IC50 ( CN1CC[C@]23CCCC[C@H]2[C@H]1Cc1ccc(O)cc13 ) = 25
